SYSTEM_TESTED: T1, HU-RAGE-SA (human, UniProt Q15109 23-342)
T1 construct: extracellular domain; Directly immobilized on a CM5 chip (~100 RU); also called hRAGE-SA; soluble human streptavidin-tagged RAGE; not shown: streptavidin tag (SA)
EXPERIMENT_DESCRIPTION: BIAcore, 10 nM scFv-Fc over directly immobilized HU-RAGE-SA, 1:1 fit
Listing of entries alongside the reported koff.
Could you give the number and then its unit, please?

Use these answered entries as a reference point.
# BINDER, koff
rows = [
    ("10G10 scFv-Fc fusion (Fc fusion, not shown: wild-type human IgG Fc (hinge and constant domains)) DIQMTQSPSSLSASVGDRVTITCRASQDVGIYVNWFQQKPGKAPRRLIYRATNLADGVPSRFSGSRSGTDFTLTISSLQPEDFATYYCLEFDEHPLTFGGGTRVEIKDGGGSGGGGSGGGGSSEVQLVESGGGLVQPGGSLRLSCAASGFTFNNYWMSWVRQAPGKGLEWVASIDNSGENTYYPDSVKDRFTISRDNAKNSLYLQMNSLRAEDTAVYYCARGGDITTGFDYWGQGTLVTVSS", "0.105 s⁻¹"),
    ("5H3 scFv-Fc fusion (Fc fusion, not shown: wild-type human IgG Fc (hinge and constant domains)) DIQMTQSPSSLSASVGDRVTITCRASQDVGIYVNWFQQKPGKAPRRLIDRATNLADGVPSRFSGSRSGTDFTLTISSLQPEDFATYYCLEFDEHPLTFGGGTKVEIKDGGGSGGGGSGGGGSSEVLLVESGGGLVQPGGSLRLSCAASGFTFNNYWMTWVRQAPGKGLEWVASIDNSGDNTYYPDSVKDRFTISRDNAKNSLYLQMNSLRAEDTAVYYCARGGDITTGFDYWGQGTLVTVSS", "0.0826 s⁻¹"),
    ("2E6 scFv-Fc fusion (Fc fusion, also called 2E6 (c); not shown: wild-type human IgG Fc (hinge and constant domains)) DIQMTQSPSSLSASVGDRVTITCRASQDVGIYVNWFQQKPGKAPRRLIYRATNLADGVPSRFSGSRSGTDFTLTISSLQPEDFATYYCLEFDEHPLTFGGGTKVEIKDGGGSGGGGSGGGGNSEVQLVESGVGLVQPGGSLRLSCAASGFTFNNYWMTWVRQAPGKGLEWVASIDNSGDNTYYPDSVKDRFTISRDNAKNSLYLQMNSLRAEDTAVYYCARGGDITNGLDYWGQGTLVTVSS", "0.00114 s⁻¹"),
]

Kindly review the next binder as well.
Data point: 5A3 scFv-Fc fusion (Fc fusion, not shown: wild-type human IgG Fc (hinge and constant domains)) DIQMTQSPSSLSASVGDIVTITCRASQDVGIYVNWFQQKPGKAPRRLIYRATNLADGVPSRFSGSRSSTDFTLTISSLQPEDFATYYCLEFDEHPLTFGGGTKVEIKDGGGSGGGGSGGGGSSEVQLVESGGGLVQPGGSLRLSCAASGFTFNNYWMTWVRQAPGKGLEWVASIDNSGDNTYYPDSVKDRFTISRDNAKNSLYLKMNSLRAEDTAVYYCTRGGDITTGLDYWGQGTLVTVSS ; koff = 0.00494 s⁻¹
